System: Mast cell
Assay: Induction of Wistar rat peritoneal mast cell degradation assessed as concanavalin A-induced histamine release after 15 mins fluorometric assay
Assay type: functional, cell-based
Settings: 0.25 h
observation-type: EC50

# input-smiles, observed
records = [
    ("CCCCCCCCCCCCCCCCCC(=O)OC[C@@H](O)COP(=O)(O)O[C@H]1CN[C@@H](C(=O)O)C1", "> 10 µM"),
    ("CCCCCCCCCCCCCCCCCC(=O)OCCCCCOP(=O)(O)OC[C@H](N)C(=O)O", "> 10 µM"),
    ("CCCCCCCCCCCCCCCC(=O)OCCCOP(=O)(O)O[C@H](C)[C@@H](N)C(=O)O", "> 10 µM"),
    ("CCCCCCCCCCCCCCCCCC(=O)OC[C@@H](O)COP(=O)(O)O[C@@H]1CN[C@@H](C(=O)O)C1", "> 10 µM"),
    ("CCCCCCCCCCCCCCCCCC(=O)OC[C@@H](O)COP(=O)(O)OC[C@H](NC)C(=O)O", "> 10 µM"),
    ("CCCCCCCCCCCCCCCCCC(=O)O[C@H](C)COP(=O)(O)OC[C@H](N)C(=O)O", "> 10 µM"),
]

Okay, now this molecule:
Can you look up the measured EC50 of CCCCCCCCCCCCCCCCCC(=O)OCCOP(=O)(O)OC[C@H](N)C(=O)O for me?
> 10 µM
